molecular target: BRD2 (Homo sapiens, UniProt P25440); test: Fluorescence anisotropy (FA) binding assay, BRD2; settings: BRD2; protein 125 nM; read-out: IC50 range (FA assay) BRD2, BRD-E monomers
Sequence (P25440 whole entry): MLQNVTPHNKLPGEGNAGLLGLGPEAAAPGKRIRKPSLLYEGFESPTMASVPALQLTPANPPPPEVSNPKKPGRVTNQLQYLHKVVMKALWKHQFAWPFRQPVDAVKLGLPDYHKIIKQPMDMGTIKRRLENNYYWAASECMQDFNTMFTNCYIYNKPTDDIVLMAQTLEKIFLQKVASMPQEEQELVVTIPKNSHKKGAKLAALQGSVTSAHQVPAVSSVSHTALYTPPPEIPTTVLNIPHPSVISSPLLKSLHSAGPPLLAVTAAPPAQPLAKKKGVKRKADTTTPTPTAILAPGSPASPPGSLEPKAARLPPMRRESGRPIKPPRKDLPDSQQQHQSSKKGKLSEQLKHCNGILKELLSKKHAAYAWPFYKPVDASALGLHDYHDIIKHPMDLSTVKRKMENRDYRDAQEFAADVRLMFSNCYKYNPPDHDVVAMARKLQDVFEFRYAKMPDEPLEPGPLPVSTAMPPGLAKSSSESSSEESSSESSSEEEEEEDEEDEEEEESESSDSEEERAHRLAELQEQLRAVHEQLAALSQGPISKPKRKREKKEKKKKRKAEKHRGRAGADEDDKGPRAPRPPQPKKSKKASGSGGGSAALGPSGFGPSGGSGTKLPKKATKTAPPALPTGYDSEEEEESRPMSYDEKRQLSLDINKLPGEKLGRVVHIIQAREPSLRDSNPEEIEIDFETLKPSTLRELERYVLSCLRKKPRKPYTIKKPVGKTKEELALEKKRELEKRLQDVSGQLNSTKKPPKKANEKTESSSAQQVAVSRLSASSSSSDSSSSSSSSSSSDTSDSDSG
pIC50: −log10 of the molar value.
Observable: pIC50

INSERT INTO assay_data (test_smiles, value_measured) VALUES
  ('COc1ccc2c(c1)C(c1ccc(Cl)cc1)=N[C@@H](CC(=O)NCCNC(=O)/C=C/c1ccc(B(O)O)cc1)c1nnc(C)n1-2', '6.00 to 7.30'),
  ('COc1ccc2c(c1)C(c1ccc(Cl)cc1)=N[C@@H](CC(=O)NCCNC(=O)Cc1cccc(B(O)O)c1)c1nnc(C)n1-2', '6.00 to 7.30'),
  ('CCNC(=O)C[C@@H]1N=C(c2ccc(Cl)cc2)c2cc(OCCCCNC(=O)c3cccc(B(O)O)c3)ccc2-n2c(C)nnc21', '4.52 to 6.00'),
  ('COc1ccc2c(c1)C(c1ccc(Cl)cc1)=N[C@@H](CC(=O)NCCc1cccc(B(O)O)c1)c1nnc(C)n1-2', '6.00 to 7.30');

Task item: Could you share what pIC50 was measured for "CCNC(=O)C[C@@H]1N=C(c2ccc(Cl)cc2)c2cc(OCCCC(=O)Nc3cccc(B(O)O)c3)ccc2-n2c(C)nnc21" , tested on BRD2 (Homo sapiens, UniProt P25440)?
Reply: 6.00 to 7.30

Task item: Proceed to "COc1ccc2c(c1)C(c1ccc(Cl)cc1)=N[C@@H](CC(=O)NCCCCNC(=O)c1ccc(B(O)O)cc1)c1nnc(C)n1-2"
Reply: 6.00 to 7.30

Task item: Entry "COc1ccc2c(c1)C(c1ccc(Cl)cc1)=N[C@@H](CC(=O)NCCc1ccc(B(O)O)cc1)c1nnc(C)n1-2" please
Reply: 4.52 to 6.00

* * *

molecular target: BRD2 (Homo sapiens); assay: Fluorescence anisotropy (FA) binding assay, BRD2; details: BRD2; protein 125 nM; read-out: IC50 range (FA assay) BRD2, BRD-N monomers
Observable: IC50

The following compounds have reported results that may help.
INSERT INTO results (test_smiles, observable, value_measured) VALUES
  ('COc1ccc2c(c1)C(c1ccc(Cl)cc1)=N[C@@H](CC(=O)NCCc1cccc(O)c1O)c1nnc(C)n1-2', 'IC50', '50 to 1000 nM'),
  ('CCNC(=O)C[C@@H]1N=C(c2ccc(Cl)cc2)c2cc(OCCCNC(=O)c3cccc(O)c3O)ccc2-n2c(C)nnc21', 'IC50', '1000 to 30000 nM'),
  ('COc1ccc2c(c1)C(c1ccc(Cl)cc1)=N[C@@H](CC(=O)NCCNC(=O)c1ccc(O)c(O)c1)c1nnc(C)n1-2', 'IC50', '50 to 1000 nM');

Lab note: next compound to report on.
Task item: Which IC50 is listed for "COc1ccc2c(c1)C(c1ccc(Cl)cc1)=N[C@@H](CC(=O)NCCCCCNC(=O)c1ccc(O)c(O)c1)c1nnc(C)n1-2" ?
Reply: 50 to 1000 nM

* * *

molecular target: UniProtKB Q15059; assay: Fluorescence anisotropy (FA) binding assay, BRD3
Sequence (Q15059 whole entry): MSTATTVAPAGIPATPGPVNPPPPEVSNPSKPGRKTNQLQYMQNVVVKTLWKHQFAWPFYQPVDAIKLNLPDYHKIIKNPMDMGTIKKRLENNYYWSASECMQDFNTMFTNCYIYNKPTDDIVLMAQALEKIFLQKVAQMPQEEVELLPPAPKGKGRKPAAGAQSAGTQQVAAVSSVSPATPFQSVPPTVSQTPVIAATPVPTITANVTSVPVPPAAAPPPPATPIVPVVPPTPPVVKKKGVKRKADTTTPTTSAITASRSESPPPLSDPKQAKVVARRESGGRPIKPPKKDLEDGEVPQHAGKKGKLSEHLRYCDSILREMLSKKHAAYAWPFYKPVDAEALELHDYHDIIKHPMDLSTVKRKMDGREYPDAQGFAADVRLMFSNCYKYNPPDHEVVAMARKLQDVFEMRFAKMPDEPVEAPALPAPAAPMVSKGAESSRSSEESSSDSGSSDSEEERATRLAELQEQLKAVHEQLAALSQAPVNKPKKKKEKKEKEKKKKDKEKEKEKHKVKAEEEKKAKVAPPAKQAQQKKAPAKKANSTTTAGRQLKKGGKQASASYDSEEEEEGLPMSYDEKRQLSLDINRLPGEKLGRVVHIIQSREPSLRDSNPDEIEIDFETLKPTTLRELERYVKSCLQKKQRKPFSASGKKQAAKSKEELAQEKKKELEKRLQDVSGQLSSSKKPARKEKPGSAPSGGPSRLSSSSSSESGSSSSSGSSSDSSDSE
Observable: IC50

INSERT INTO assay_data (molecule, value_measured) VALUES
  ('COc1ccc2c(c1)C(c1ccc(Cl)cc1)=N[C@@H](CC(=O)NCCNC(=O)c1cccc(B(O)O)c1)c1nnc(C)n1-2 [BRD-E-02]', '50 to 1000 nM'),
  ('COc1ccc2c(c1)C(c1ccc(Cl)cc1)=N[C@@H](CC(=O)NCc1cccc(B(O)O)c1)c1nnc(C)n1-2 [BRD-E-10]', '50 to 1000 nM'),
  ('COc1ccc2c(c1)C(c1ccc(Cl)cc1)=N[C@@H](CC(=O)NCCCNC(=O)c1cccc(O)c1O)c1nnc(C)n1-2 [BRD-N-04]', '50 to 1000 nM'),
  ('COc1ccc2c(c1)C(c1ccc(Cl)cc1)=N[C@@H](CC(=O)NCCNC(=O)c1ccc(B(O)O)cc1)c1nnc(C)n1-2 [BRD-E-01]', '50 to 1000 nM'),
  ('COc1ccc2c(c1)C(c1ccc(Cl)cc1)=N[C@@H](CC(=O)NCCCCNC(=O)c1cccc(O)c1O)c1nnc(C)n1-2 [BRD-N-06]', '1000 to 30000 nM');

Task item: Sample COc1ccc2c(c1)C(c1ccc(Cl)cc1)=N[C@@H](CC(=O)NCCCCCNC(=O)c1ccc(B(O)O)cc1)c1nnc(C)n1-2 [BRD-E-07] — what was its IC50?
Reply: 50 to 1000 nM

Task item: Same lookup for COc1ccc2c(c1)C(c1ccc(Cl)cc1)=N[C@@H](CC(=O)NCCCCNC(=O)c1ccc(O)c(O)c1)c1nnc(C)n1-2 [BRD-N-05] , please.
Reply: 50 to 1000 nM

Task item: And CCNC(=O)C[C@@H]1N=C(c2ccc(Cl)cc2)c2cc(OCCCCC(=O)Nc3cccc(O)c3O)ccc2-n2c(C)nnc21 [BRD-N-23] ?
Reply: 50 to 1000 nM
